Answer each item with its documented self-splicing fitness (ln).
experiment: self-splicing fitness, log relative to wild type (ln ratio); higher = more splicing; Tetrahymena group I intron in knt gene, E. coli kanamycin selection, DiMSum; sequences stand for … in CUCUCU…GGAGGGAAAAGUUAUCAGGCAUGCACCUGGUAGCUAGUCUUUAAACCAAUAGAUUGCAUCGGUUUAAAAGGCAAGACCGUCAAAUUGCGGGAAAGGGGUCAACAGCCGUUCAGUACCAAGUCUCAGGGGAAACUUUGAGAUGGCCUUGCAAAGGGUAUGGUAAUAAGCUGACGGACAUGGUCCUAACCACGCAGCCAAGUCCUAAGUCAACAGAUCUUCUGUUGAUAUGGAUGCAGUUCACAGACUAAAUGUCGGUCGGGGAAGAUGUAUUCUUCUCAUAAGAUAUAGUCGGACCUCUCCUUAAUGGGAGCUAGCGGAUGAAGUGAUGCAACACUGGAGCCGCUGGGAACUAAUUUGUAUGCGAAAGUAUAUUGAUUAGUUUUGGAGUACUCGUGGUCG;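 note: selection with 25 µg/mL kanamycin versus none on LB agar overnight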
conditions used: 37 °C
Give bare numbers.

Some solved entries appear below for comparison.
construct sequence | self-splicing fitness (ln)
UGUCAGCAAUAUUACGCUGG | -2.19
GUUGAGCAAUAUUACGAGUA | -1.41
ACAUAGCAAUAUUACGUGCU | -1.1
CAACAGCAAUAUUACGACCA | -0.585

Parameters: items (list). Returns: self-splicing fitness (ln) for each item.
1. GGCAAGCAAUAUUACGAACU
2. UAUAAGCAAUAUUACGCCAG
3. AACAAGCAAUAUUACGCUCG
4. UGCUAGCAAUAUUACGUCGA
5. GAAGAGCAAUAUUACGUAGU
6. ACCAAGCAAUAUUACGGCAA
7. CAAUAGCAAUAUUACGACCU

(A)
1. 0.413
2. -0.728
3. -0.282
4. -1.14
5. -2.88
6. -0.348
7. -0.203

Parameters: items (list). Returns: self-splicing fitness (ln) for each item.
1. UGAUAGCAAUAUUACGACUG
2. ACGGAGCAAUAUUACGCGUG
3. UAAUAGCAAUAUUACGCUCU
4. UUAGAGCAAUAUUACGUUGU
5. GUACAGCAAUAUUACGGCAG
6. UACCAGCAAUAUUACGUUCU

(A)
-0.49
-0.943
-0.42
-2.4
-2.33
-1.86

Parameters: items (list). Returns: self-splicing fitness (ln) for each item.
1. CACUAGCAAUAUUACGUCAU
2. AAUUAGCAAUAUUACGAUUG
3. AGAAAGCAAUAUUACGCCUA

(A)
[-2.79, -1.14, -1.04]

Parameters: items (list). Returns: self-splicing fitness (ln) for each item.
1. CACGAGCAAUAUUACGGAGC
2. CUCGAGCAAUAUUACGCUUU

(A)
1. -0.87
2. -2.31

Entry source: the supplement of paper PMC7877785
